TESTED_ON: T1, IL23R_huFC (human, UniProt Q5VWK5 24-353)
T1 sequence (looked up): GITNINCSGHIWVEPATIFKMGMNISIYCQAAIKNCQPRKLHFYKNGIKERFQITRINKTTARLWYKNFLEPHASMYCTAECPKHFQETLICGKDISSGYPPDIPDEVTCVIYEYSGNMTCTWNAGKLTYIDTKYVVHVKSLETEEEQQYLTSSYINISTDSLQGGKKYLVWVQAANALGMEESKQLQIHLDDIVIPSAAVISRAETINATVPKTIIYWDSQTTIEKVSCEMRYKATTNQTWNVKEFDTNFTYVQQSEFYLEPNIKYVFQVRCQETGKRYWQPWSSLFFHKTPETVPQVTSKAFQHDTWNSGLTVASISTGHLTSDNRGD
RUN_DESCRIPTION: IL23-IL23R competitive ELISA, IC50 grade
Bridges are numbered along the chain shown (N, C = ends).
ATTRIBUTE_MEASURED: IC50

// query Field request: IC50 | item: H-CADWVCYWHTFG-NH2 (disulfide 1-6 (inferred)) [Hy-CADWVCYWHTFG-NH2]
// result 100 to 1000 nM
